biological target: His-PKC-theta (Homo sapiens, UniProt Q04759); construct: His; purchased Invitrogen; test: PKC-theta Assay (384-well time resolved fluorescence, IMAP TR-FRET); format: biochemical; settings: read-out: Act. Level (IC50 in the PKC-theta Assay)
Sequence (Q04759 whole entry): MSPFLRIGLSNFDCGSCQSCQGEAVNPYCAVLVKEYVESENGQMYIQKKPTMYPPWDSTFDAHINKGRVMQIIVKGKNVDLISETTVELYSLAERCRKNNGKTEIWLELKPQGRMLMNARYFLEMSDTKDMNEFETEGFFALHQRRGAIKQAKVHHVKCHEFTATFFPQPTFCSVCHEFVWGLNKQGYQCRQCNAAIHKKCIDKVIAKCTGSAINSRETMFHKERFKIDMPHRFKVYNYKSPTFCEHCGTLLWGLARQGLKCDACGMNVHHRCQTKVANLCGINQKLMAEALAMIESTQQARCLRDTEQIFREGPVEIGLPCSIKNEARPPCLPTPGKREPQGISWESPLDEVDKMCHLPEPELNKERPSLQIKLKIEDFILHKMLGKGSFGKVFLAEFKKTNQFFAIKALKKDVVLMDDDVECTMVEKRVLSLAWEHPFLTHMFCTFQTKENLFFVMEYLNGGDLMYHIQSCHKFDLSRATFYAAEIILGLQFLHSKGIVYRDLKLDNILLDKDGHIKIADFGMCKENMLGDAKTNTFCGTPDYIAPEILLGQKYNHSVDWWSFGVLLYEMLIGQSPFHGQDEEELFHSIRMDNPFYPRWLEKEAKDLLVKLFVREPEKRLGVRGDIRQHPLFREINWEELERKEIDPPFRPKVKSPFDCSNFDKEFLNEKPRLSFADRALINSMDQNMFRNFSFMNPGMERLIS
Quantity: IC50

Compound	IC50
CC1(C)C[C@H](Nc2nc(NCc3c[n+]([O-])ccc3C(F)(F)F)ncc2C#N)CC[C@@H]1O	< 100 nM
CC1(C)[C@@H](O)C[C@H]1Nc1nc(NCCCn2ccnc2)ncc1C#N	2000 to 10000 nM
CC1(C)C[C@H](Nc2nc(NCCc3c[nH]c4cc(Cl)ccc34)ncc2C#N)CC[C@@H]1O	100 to 800 nM
CC1(C)[C@@H](O)C[C@H]1Nc1nc(NCCC2C(=O)Nc3ccccc32)ncc1C#N (some centres unmarked)	< 100 nM
CC1(C)[C@H](O)CCC[C@@H]1Nc1nc(NCCC2C(=O)Nc3ccccc32)ncc1C#N (some centres unmarked)	100 to 800 nM
C[C@]1(O)CC[C@@H](Nc2nc(NCc3cncnc3-c3ccccc3)ncc2C#N)CC1	< 100 nM
CC1(C)[C@@H](Nc2nc(NCCC3C(=O)Nc4ccc(F)cc43)ncc2C#N)CCC[C@@H]1O (some centres unmarked)	100 to 800 nM

Please turn your attention to the following entry.
Exercise: State, in one line, measured IC50 of CC1(C)C[C@H](Nc2nc(NCCC3(O)C(=O)Nc4ccccc43)ncc2C#N)CC[C@@H]1O (some centres unmarked)
Key: 100 to 800 nM
